Target: human cloned 5-HT2C receptor, expressed in CHO cells (Homo sapiens)
Construct: expressed in transfected cells; host or cells: CHO cells
Sequence (P28335 33-458): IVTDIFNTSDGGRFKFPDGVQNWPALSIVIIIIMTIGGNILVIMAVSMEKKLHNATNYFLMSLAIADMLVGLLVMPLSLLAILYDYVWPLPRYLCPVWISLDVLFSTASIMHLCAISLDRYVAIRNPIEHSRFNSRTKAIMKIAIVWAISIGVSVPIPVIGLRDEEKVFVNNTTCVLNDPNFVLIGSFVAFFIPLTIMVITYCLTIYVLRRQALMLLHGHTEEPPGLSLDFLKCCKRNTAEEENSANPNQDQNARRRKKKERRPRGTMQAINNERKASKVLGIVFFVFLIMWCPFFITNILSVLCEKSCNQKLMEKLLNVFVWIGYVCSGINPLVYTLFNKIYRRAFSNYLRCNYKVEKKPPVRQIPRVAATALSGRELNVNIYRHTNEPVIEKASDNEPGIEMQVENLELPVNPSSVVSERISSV
Test: In vitro binding affinity for 5-HT2C receptor ([3H]mesulergine radioligand binding)
Conditions: human cloned 5-HT2C receptor, read-out: 5-HT2C pIC50 (converted)
IC50: recorded values
Hi! Could you send only the number? It should be in nM, unit omitted.

Worked cases, IC50 given:
1. O=S(=O)(c1ccccc1)N1CCN(CC2CC3c4ccccc4Cc4ccc(F)cc4C3O2)CC1 (centres unmarked) [Compound 106]
61.7
2. O=C(NC1CCN(CC2CC3c4ccccc4Cc4ccc(F)cc4C3O2)CC1)C1CC1 (centres unmarked) [Compound 220]
2.14
3. NCCN1CCN(CC2CC3c4ccccc4Cc4ccc(F)cc4C3O2)CC1 (centres unmarked) [Compound 47]
34.7
4. Cc1ccc(OC2CCN(CC3CC4c5ccccc5Cc5ccc(F)cc5C4O3)C2)cc1 (centres unmarked) [Compound 28]
1.78
5. COC(=O)C1CCN(C[C@H]2C[C@@H]3c4ccccc4Cc4ccc(F)cc4[C@@H]3O2)C1 (single isomer, unassigned) [Compound 11]
0.708

Fill in the blank: the reported IC50 of Cn1cccc1C(=O)NC1CCN(CC2CC3c4ccccc4Cc4ccc(F)cc4C3O2)CC1 (centres unmarked) [Compound 221] is ____.
11

Fill in the blank: the reported IC50 of O=C(NCc1cccs1)C1CCN(CC2CC3c4ccccc4Cc4ccc(F)cc4C3O2)CC1 (centres unmarked) [Compound 195] is ____.
1.62

Fill in the blank: the reported IC50 of O=C(NCCCO)C1CCN(CC2CC3c4ccccc4Cc4ccc(F)cc4C3O2)CC1 (centres unmarked) [Compound 175] is ____.
1.74

====

target: human cloned 5-HT2C receptor, expressed in CHO cells (Homo sapiens, UniProt P28335); construct: expressed in transfected cells; host or cells: CHO cells; assay: In vitro binding affinity for 5-HT2C receptor ([3H]mesulergine radioligand binding); settings: human cloned 5-HT2C receptor, read-out: 5-HT2C pIC50 (converted)
IC50: recorded values
Hi! Could you send only the number? It should be in nM, unit omitted.

1) CN1c2ccccc2C2CC(CN3CCC(O)C3)OC2c2ccccc21 (racemic) [Compound 263]
13.2
2) O=C(NC1CCCCC1)OCC1CCN(CC2CC3c4ccccc4Cc4ccc(F)cc4C3O2)C1 (mixture of isomers) [Compound 21]
2.88
3) OC(COc1ccc(F)cc1)CN1CCN(CC2CC3c4ccccc4Cc4ccc(F)cc4C3O2)CC1 (mixture of isomers) [Compound 57]
17.8

Fill in the blank: the reported IC50 of COc1cc(OC)c(CNC(=O)C2CCN(CC3CC4c5ccccc5Cc5ccc(F)cc5C4O3)CC2)c(OC)c1 (stereo not drawn) [Compound 186] is ____.
2.34

Fill in the blank: the reported IC50 of Fc1ccc2c(c1)C1OC(CN3CCN(Cc4ccsc4)CC3)CC1c1ccccc1C2 (stereo not drawn) [Compound 59] is ____.
49

Fill in the blank: the reported IC50 of COc1ccc(N2CCN(CC3CC4c5ccccc5Cc5ccc(F)cc5C4O3)CC2)cc1 (stereo not drawn) [Compound 116] is ____.
20

Fill in the blank: the reported IC50 of OC1CCN(C[C@@H]2C[C@@H]3c4ccccc4Sc4ccc(F)cc4[C@H]3O2)C1 (relative stereo) [Compound 43] is ____.
1.29

Fill in the blank: the reported IC50 of C#CCOC(=O)NC1CCN(CC2CC3c4ccccc4Cc4ccc(F)cc4C3O2)CC1 (stereo not drawn) [Compound 217] is ____.
4.07

Fill in the blank: the reported IC50 of O=C(OC1CCN(CC2CC3c4ccccc4Cc4ccc(F)cc4C3O2)C1)c1ccc(F)cc1 (mixture of isomers) [Compound 16] is ____.
2.82

Fill in the blank: the reported IC50 of CCOC(=O)CC1CN(C[C@H]2C[C@@H]3c4ccccc4Cc4ccc(F)cc4[C@@H]3O2)CCO1 (stereo partly drawn) [Compound 135] is ____.
16.6

====

IC50: recorded values
target: human cloned 5-HT2A receptor, expressed in L929 cells (Homo sapiens, UniProt P28223); construct: expressed in transfected cells; host or cells: L929 cells; assay: In vitro binding affinity for 5-HT2A receptor ([125I]R91150 radioligand binding); details: human cloned 5-HT2A receptor in L929 cells, [125I]R91150; read-out: 5-HT2A pIC50 (converted)
Sequence (P28223 whole entry): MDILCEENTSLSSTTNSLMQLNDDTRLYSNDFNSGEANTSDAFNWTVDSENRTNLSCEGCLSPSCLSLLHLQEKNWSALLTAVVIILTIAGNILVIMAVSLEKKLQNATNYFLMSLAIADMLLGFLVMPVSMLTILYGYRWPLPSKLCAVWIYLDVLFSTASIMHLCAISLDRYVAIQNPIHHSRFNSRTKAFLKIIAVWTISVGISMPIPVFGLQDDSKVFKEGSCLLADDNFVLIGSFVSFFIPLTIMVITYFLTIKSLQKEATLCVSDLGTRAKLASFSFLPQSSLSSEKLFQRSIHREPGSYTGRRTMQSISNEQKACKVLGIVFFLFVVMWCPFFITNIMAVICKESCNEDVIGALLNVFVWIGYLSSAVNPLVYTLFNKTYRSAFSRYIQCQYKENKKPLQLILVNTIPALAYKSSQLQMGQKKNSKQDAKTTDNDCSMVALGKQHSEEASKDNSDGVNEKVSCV
Hi! Could you send only the number? It should be in nM, unit omitted.

1. O=C(NC1CCN(CC2CC3c4ccccc4Cc4ccc(F)cc4C3O2)CC1)c1ccc(Cl)cc1Cl (centres unmarked) [Compound 230]
2.95
2. Fc1ccc2c(c1)C1OC(CN3CCN(c4nc5ccccc5o4)CC3)CC1c1ccccc1C2 (centres unmarked) [Compound 126]
8.91
3. CC(C)(C)NC(=O)C1CCN(CC2CC3c4ccccc4Cc4ccc(F)cc4C3O2)CC1 (centres unmarked) [Compound 173]
0.724
4. CCOC(=O)CNC(=S)N1CCN(CC2CC3c4ccccc4Cc4ccc(F)cc4C3O2)CC1 (centres unmarked) [Compound 110]
6.17
5. O=C(NC1CCCCC1)N1CCN(CC2CC3c4ccccc4Cc4ccc(F)cc4C3O2)CC1 (centres unmarked) [Compound 95]
1.74

Fill in the blank: the reported IC50 of N#Cc1ccc2c(c1)[C@H]1C[C@@H](CN3CCC(O)C3)O[C@H]1c1cc(F)ccc1S2 (relative stereo) [Compound 260] is ____.
2.24

Fill in the blank: the reported IC50 of Fc1ccc2c(c1)C1OC(CN3CCN(CC=Cc4ccccc4)CC3)CC1c1ccccc1C2 (centres unmarked) [Compound 48] is ____.
30.9

Fill in the blank: the reported IC50 of OCCC1CCN(C[C@H]2C[C@@H]3c4ccccc4Cc4ccc(F)cc4[C@@H]3O2)CC1 [Compound 154] is ____.
0.912

====

target: human Dopamine D2L receptor (Homo sapiens); construct: expressed in transfected cells; host or cells: CHO cells; assay: In vitro binding affinity for human D2L receptor ([3H]Spiperone binding); conditions: human D2L receptor-transfected CHO cell membranes, read-out: D2L pIC50 (converted)
Sequence (P14416 whole entry): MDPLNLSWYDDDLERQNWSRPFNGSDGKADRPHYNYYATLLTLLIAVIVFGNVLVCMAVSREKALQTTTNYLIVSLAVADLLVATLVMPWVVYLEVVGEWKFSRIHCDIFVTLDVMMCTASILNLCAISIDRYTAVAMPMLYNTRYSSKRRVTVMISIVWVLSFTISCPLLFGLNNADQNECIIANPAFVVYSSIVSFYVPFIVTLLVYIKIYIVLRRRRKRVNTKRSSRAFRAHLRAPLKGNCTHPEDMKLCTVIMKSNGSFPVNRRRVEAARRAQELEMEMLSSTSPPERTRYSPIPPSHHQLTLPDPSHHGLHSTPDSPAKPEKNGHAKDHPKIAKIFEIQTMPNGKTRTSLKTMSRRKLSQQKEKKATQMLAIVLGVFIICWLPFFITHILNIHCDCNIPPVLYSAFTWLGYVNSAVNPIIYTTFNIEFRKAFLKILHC
// classify: if (IC50 < 10 nM) fulfilled else not fulfilled

Take a look at these entries with their results.
1. COC(=O)C(Cc1ccc(Cl)cc1)NC(=O)C1CCN(CC2CC3c4ccccc4Cc4ccc(F)cc4C3O2)CC1 (mixture of isomers)
not fulfilled
2. O=C(Nc1ccccc1F)C1CCN(CC2CC3c4ccccc4Cc4ccc(F)cc4C3O2)CC1 (stereo not drawn)
fulfilled
3. Cc1ccc(OC2CCN(CC3CC4c5ccccc5Cc5ccc(F)cc5C4O3)C2)cc1 (stereo not drawn)
fulfilled

Item OC(COCc1ccco1)CN1CCN(CC2CC3c4ccccc4Cc4ccc(F)cc4C3O2)CC1 (mixture of isomers) : IC50 beneath 10 nM, strictly?
fulfilled

Item N#CCC1CCN(CC2CC3c4ccccc4Cc4ccc(F)cc4C3O2)CC1 (stereo not drawn) : IC50 beneath 10 nM, strictly?
fulfilled

Item COCCNC(=S)NC1CCN(CC2CC3c4ccccc4Cc4ccc(F)cc4C3O2)CC1 (stereo not drawn) : IC50 beneath 10 nM, strictly?
not fulfilled

Item Fc1ccc2c(c1)C1OC(CN3CCN(CC=Cc4ccccc4)CC3)CC1c1ccccc1C2 (stereo not drawn) : IC50 beneath 10 nM, strictly?
fulfilled

Item COc1ccc(NC(=S)N2CCN(CC3CC4c5ccccc5Cc5ccc(F)cc5C4O3)CC2)cc1 (stereo not drawn) : IC50 beneath 10 nM, strictly?
not fulfilled

====

biological target: human cloned 5-HT2A receptor, expressed in L929 cells (Homo sapiens); construct: expressed in transfected cells; host or cells: L929 cells; experiment: In vitro binding affinity for 5-HT2A receptor ([125I]R91150 radioligand binding); conditions: human cloned 5-HT2A receptor in L929 cells, [125I]R91150; read-out: 5-HT2A pIC50 (converted)
// classify: if (IC50 < 3 nM) true else false

1) Fc1ccc2c(c1)C1OC(CN3CCN(Cc4ccc(-c5ccc(Cl)cc5)o4)CC3)CC1c1ccccc1C2 (centres unmarked) [Compound 62]
false
2) COc1cc(OC)c(CNC(=O)C2CCN(CC3CC4c5ccccc5Cc5ccc(F)cc5C4O3)CC2)c(OC)c1 (centres unmarked) [Compound 186]
true
3) Fc1ccc2c(c1)C1OC(CN3CCN(c4ccc(C(F)(F)F)cn4)CC3)CC1c1ccccc1C2 (centres unmarked) [Compound 120]
false
4) COC(=O)C1CCN(C[C@H]2C[C@@H]3c4ccccc4Cc4ccc(F)cc4[C@@H]3O2)C1 (some centres unmarked) [Compound 12]
true
5) CCCCNC(=O)N1CCN(CC2CC3c4ccccc4Cc4ccc(F)cc4C3O2)CC1 (centres unmarked) [Compound 89]
true

Item N#CCC1CCN(CC2CC3c4ccccc4Cc4ccc(F)cc4C3O2)CC1 (centres unmarked) [Compound 168] : IC50 beneath 3 nM, strictly?
false

Item O=C(NCCCO)C1CCN(CC2CC3c4ccccc4Cc4ccc(F)cc4C3O2)CC1 (centres unmarked) [Compound 175] : IC50 beneath 3 nM, strictly?
true

# credit: patent US8569267B2
